Tested on: in vivo angiogenesis, blood vessel count
Experiment Description: reduction of blood vessel formation in vivo – HTS, in vivo study (AID 732);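 also: zebrafish embryos dosed at one day post fertilization; 0% = reference inhibitor and 100% = plate mean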
Applied Conditions: stronger effect = lower value;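 tested at 30 µM in the well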
The source made the active and inactive calls. No rule for the calls is given here.
Measured Property: vessel count % control

Which value of vessel count % control has been reported for CC(C)NCC(O)c1ccc(NS(C)(=O)=O)cc1 (centres undefined) in the records?
95.6% (inactive)

// vessel count % control lookup, key: CCc1c(C)[nH]c2c1C(=O)C(CN1CCOCC1)CC2 (centres undefined)
93.5% (inactive)

Report vessel count % control for CN=C(N)NCCC[C@H](N)C(=O)O please.
93% (inactive)

Hello, the source for this data is PubChem BioAssay AID732, in case you need it.
